Values compiled from patent US8841456B2.

target: human PI3Kα protein (Homo sapiens); construct: purchased Carna Biosciences, Inc; host or cells: Baculovirus expression system; test: PI3Kα enzyme assay (ADP-Glo kinase assay); type: biochemical; conditions: IC50 class; 3 nM PI3Kα, 50 μM PIP2, 100 μM ATP; read-out: PI3Kα Inhibitory Activity
Sequence (P42336 whole entry): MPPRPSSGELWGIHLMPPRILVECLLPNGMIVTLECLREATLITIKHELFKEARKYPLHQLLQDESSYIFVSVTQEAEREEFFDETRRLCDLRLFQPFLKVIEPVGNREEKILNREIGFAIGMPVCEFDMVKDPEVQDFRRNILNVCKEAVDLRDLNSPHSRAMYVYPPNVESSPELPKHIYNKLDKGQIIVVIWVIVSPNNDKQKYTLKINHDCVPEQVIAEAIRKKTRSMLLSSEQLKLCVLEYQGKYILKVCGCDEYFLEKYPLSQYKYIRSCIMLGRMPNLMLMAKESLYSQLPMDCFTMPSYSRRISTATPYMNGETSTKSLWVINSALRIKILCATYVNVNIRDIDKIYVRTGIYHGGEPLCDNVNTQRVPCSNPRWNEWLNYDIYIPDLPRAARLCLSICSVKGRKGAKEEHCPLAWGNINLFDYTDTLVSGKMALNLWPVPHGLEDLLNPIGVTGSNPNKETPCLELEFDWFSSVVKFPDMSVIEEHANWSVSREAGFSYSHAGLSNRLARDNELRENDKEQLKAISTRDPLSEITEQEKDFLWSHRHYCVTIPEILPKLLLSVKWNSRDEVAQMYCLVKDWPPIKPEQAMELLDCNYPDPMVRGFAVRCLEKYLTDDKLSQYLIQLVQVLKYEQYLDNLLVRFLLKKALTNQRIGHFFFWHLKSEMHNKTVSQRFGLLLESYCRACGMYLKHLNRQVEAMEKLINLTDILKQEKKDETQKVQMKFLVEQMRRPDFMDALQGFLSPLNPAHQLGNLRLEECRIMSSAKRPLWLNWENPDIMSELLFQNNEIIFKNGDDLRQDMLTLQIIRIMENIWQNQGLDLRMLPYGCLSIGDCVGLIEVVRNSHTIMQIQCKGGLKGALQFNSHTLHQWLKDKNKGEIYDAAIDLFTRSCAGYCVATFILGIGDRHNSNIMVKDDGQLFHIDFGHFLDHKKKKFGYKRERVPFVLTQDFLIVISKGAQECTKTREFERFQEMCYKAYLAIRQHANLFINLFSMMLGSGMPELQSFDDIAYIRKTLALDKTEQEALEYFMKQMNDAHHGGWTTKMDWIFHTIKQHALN
Sequence (P27986 whole entry partner): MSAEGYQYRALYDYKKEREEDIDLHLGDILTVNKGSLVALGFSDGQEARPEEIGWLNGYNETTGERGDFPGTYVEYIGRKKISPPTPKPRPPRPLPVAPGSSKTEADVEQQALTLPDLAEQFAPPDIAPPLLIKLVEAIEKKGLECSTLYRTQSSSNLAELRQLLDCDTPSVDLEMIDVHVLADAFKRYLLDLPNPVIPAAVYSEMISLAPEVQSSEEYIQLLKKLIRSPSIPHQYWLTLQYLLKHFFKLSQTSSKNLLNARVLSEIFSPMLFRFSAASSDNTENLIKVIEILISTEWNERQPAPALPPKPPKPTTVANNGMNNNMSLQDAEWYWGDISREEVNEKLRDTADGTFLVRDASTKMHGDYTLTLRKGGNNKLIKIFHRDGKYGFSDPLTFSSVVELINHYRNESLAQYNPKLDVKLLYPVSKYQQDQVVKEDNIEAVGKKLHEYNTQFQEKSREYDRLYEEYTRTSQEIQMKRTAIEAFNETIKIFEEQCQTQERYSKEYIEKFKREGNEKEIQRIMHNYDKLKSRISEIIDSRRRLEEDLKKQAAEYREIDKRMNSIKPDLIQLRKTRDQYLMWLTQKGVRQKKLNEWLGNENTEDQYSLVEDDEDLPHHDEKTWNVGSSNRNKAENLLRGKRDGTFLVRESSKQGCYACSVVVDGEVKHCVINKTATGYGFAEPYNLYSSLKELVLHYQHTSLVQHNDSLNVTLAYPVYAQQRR
recordedMetric: IC50

Solved entries (count: 4):
INSERT INTO measurements (structuresmiles, result) VALUES
  ('O=C(Nc1ccc2ncc(N3CCOC3=O)cc2n1)NC1CCCC1', '< 100 nM'),
  ('O=C(Nc1ccc2ncc(-c3cn[nH]c3)cc2n1)NC1CCCCC1', '< 100 nM'),
  ('CN1CCN(CCn2cc(-c3cnc4ccc(NC(=O)NC5CCCC5)nc4c3)cn2)CC1', '< 100 nM'),
  ('O=C(NCCCc1ccccc1)Nc1ccc2ncc(-c3cn[nH]c3)cc2n1', '100 to 1000 nM');

Proceeding to the next compound to report its IC50.
Q: API: value(readout=IC50, system=human PI3Kα protein (Homo sapiens)) for record O=C(Nc1ccc2ncc(-c3cnc4[nH]ccc4c3)cc2n1)NC1CCCC1
Ans: 100 to 1000 nM

====

target: human PI3Kα protein (Homo sapiens); construct: purchased Carna Biosciences, Inc; host or cells: Baculovirus expression system; assay: PI3Kα enzyme assay (ADP-Glo kinase assay); type: biochemical; conditions: IC50 class; 3 nM PI3Kα, 50 μM PIP2, 100 μM ATP; read-out: PI3Kα Inhibitory Activity
pIC50: −log10 of the molar value.
recordedMetric: pIC50

INSERT INTO results (structuresmiles, recordedmetric, result) VALUES
  ('COCCCNC(=O)Nc1ccc2ncc(-c3cn[nH]c3)cc2n1', 'pIC50', '6.00 to 7.00'),
  ('COc1cc(Nc2cnc3ccc(NC(=O)NC4CCCC4)nc3c2)cc(OC)c1', 'pIC50', '> 7.00'),
  ('C=CCNC(=O)Nc1ccc2ncc(-c3cn[nH]c3)cc2n1', 'pIC50', '6.00 to 7.00'),
  ('CC(C)[C@@H](C)NC(=O)Nc1ccc2ncc(-c3cn[nH]c3)cc2n1', 'pIC50', '> 7.00'),
  ('Cn1cc(-c2cnc3ccc(NC(=O)NC4CCCC4)nc3c2)cn1', 'pIC50', '> 7.00'),
  ('COCCn1cc(-c2cnc3ccc(NC(=O)NC4CCCC4)nc3c2)cn1', 'pIC50', '> 7.00'),
  ('Cc1nc2ccc(NC(=O)NC3CCCC3)nc2cc1-c1cnn(C)c1', 'pIC50', '6.00 to 7.00'),
  ('CC1(NC(=O)Nc2ccc3ncc(-c4cnn(CCCN5CCNCC5)c4)cc3n2)CCCC1', 'pIC50', '> 7.00');

Proceeding to the next compound to report its pIC50.
Q: API: value(readout=pIC50, system=human PI3Kα protein (Homo sapiens)) for record O=C(Nc1ccc2ncc(N3CCNCC3)cc2n1)NC1CCCC1
Ans: 6.00 to 7.00

====

IC50 values for the compounds below.
target: glutathione S-transferase (GST)-fusion human ERK2 protein (Homo sapiens); construct: purchased Carna Biosciences, Inc; host or cells: E. coli expression system; experiment: ERK2 enzyme assay (LabChip mobility shift); assay type: biochemical; conditions: IC50 class; 2 nM ERK2, 4.25 μM FL-Peptide 8, 43 μM ATP; read-out: ERK2 Inhibitory Activity
Sequence (P28482 whole entry, the tested form may be a part): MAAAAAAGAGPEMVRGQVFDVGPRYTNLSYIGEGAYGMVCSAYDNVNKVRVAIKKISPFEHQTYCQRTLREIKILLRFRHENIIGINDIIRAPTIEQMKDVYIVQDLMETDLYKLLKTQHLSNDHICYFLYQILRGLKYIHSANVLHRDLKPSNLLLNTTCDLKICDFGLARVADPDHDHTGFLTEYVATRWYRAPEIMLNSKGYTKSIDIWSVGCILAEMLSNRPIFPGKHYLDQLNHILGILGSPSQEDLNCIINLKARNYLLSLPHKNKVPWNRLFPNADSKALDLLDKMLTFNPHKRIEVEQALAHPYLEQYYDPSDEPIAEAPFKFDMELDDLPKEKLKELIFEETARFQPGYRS

INSERT INTO measurements (structuresmiles, targetorsystem, recordedmetric, result) VALUES
  ('CN(C)CCOc1cc(-c2cnc3ccc(NC(=O)NC4CCCC4)nc3c2)ccc1O', 'glutathione S-transferase (GST)-fusion human ERK2 protein (Homo sapiens)', 'IC50', '< 100 nM'),
  ('O=C(Nc1ccc2ncc(N3CC(OCCN4CCOCC4)C3)cc2n1)NC1CCCC1', 'glutathione S-transferase (GST)-fusion human ERK2 protein (Homo sapiens)', 'IC50', '100 to 1000 nM'),
  ('O=C(NCCCCCc1ccccc1)Nc1ccc2ncc(-c3cn[nH]c3)cc2n1', 'glutathione S-transferase (GST)-fusion human ERK2 protein (Homo sapiens)', 'IC50', '< 100 nM'),
  ('CC(C)(C)OC(=O)C1CCN(c2cnc3ccc(NC(=O)NC4CCCC4)nc3c2)CC1', 'glutathione S-transferase (GST)-fusion human ERK2 protein (Homo sapiens)', 'IC50', '1000 to 10000 nM'),
  ('O=C(Nc1ccc2ncc(N3CCS(=O)(=O)CC3)cc2n1)NC1CCCC1', 'glutathione S-transferase (GST)-fusion human ERK2 protein (Homo sapiens)', 'IC50', '< 100 nM');

Q: What IC50 value was documented for this compound, S=C(Nc1ccc2ncc(-c3cnn(CCN4CCNCC4)c3)cc2n1)NC1CCCC1 ?
Ans: < 100 nM

Q: What IC50 value was documented for this compound, COCCN(C)c1cnc2ccc(NC(=O)NC3CCCC3)nc2c1 ?
Ans: 100 to 1000 nM

Q: What IC50 value was documented for this compound, O=C(Nc1ccc2ncc(CN3CCOCC3)cc2n1)NC1CCCC1 ?
Ans: 1000 to 10000 nM

Q: What IC50 value was documented for this compound, O=C1CN(c2cnc3ccc(NC(=O)NC4CCCC4)nc3c2)CCN1 ?
Ans: 100 to 1000 nM

Q: What IC50 value was documented for this compound, CN1CC(Cn2cc(-c3cnc4ccc(NC(=O)NC5CCCC5)nc4c3)cn2)C1 ?
Ans: < 100 nM
